- EXPERIMENT: metabolic stability in liver homogenate
- Type: in vitro ADME
- CONDITION SET: half-life in the liver homogenate (rat)
READOUT KIND: T½ (h)
The answer is to be given in h; state only the numeric part.

// worked examples, T½ included
MOLECULE	RESULT VALUE
C=C1/C(=C\C=C2/CCC[C@]3(C)[C@@H]([C@H](C)/C=C/[C@H](O)C4(CCCC)CC4)CC[C@@H]23)C[C@@H](O)C[C@@H]1O [Compound 226a]	1.33
C=C1/C(=C\C=C2/CCC[C@]3(C)[C@@H]([C@H](C)/C=C/[C@@H](O)CCC4(C(=O)CCCC)CC4)CC[C@@H]23)C[C@@H](O)C[C@@H]1O [Compound 182b]	1.67
C=C1/C(=C\C=C2/CCC[C@]3(C)[C@@H]([C@H](C)/C=C/[C@H](O)C4(CC)CC4)CC[C@@H]23)C[C@@H](O)C[C@@H]1O [Compound 214a]	1.33
C=C1/C(=C\C=C2/CCC[C@]3(C)[C@@H]([C@H](C)/C=C/[C@@H](O)CCC4(C(=O)CCC)CC4)CC[C@@H]23)C[C@@H](O)C[C@@H]1O [Compound 175b]	1.5

Could you now consider this next molecule?
Prompt: Request the reported T½ associated with C=C1/C(=C\C=C2/CCC[C@]3(C)[C@@H]([C@H](C)/C=C/[C@@H](O)C4(/C=C/CC)CC4)CC[C@@H]23)C[C@@H](O)C[C@@H]1O [Compound 221b]
Response: 1.5
